Value source: patent US20100119483A1

Tested on: HCV pseudoparticles
test.name: HCV pseudoparticle (HCVpp) entry assay in Huh7 hepatoma cells, luciferase readout
Type: cell-based, hepatitis C virus
conditions.used: peptide library screen, first screened at 100 ug/ml; cell entry inhibition vs uninhibited control
Ends that are not written are not given here.
Label yes (1) when HCVpp % inh >= 20%; otherwise no (0).

Worked cases, answers included:
query: Could you please find out whether P-R-C-L-V-H-Y-P-Y-R-L-W-H-Y-P-C (PRCLVHYPYRLWHYPC; HCV peptide) [SEQ ID NO: 62] has HCVpp % inh that meets 20% or exceeds it?
result: no (0)

query: Now give it for L-P-C-S-F-T-T-L-P-A-L-S-T-G-L-I (LPCSFTTLPALSTGLI; HCV peptide) [SEQ ID NO: 72] too.
result: no (0)

query: Now give it for I-F-K-V-R-M-Y-V-G-G-V-E-H-R-L-E (IFKVRMYVGGVEHRLE; HCV peptide) [SEQ ID NO: 65] too.
result: no (0)

query: Now give it for P-Y-R-L-W-H-Y-P-C-T-V-N-F-T-I-F (PYRLWHYPCTVNFTIF; HCV peptide) [SEQ ID NO: 63] too.
result: yes (1)

query: Now give it for N-R-T-A-L-N-C-N-D-S-L-N-T-G-F-L (NRTALNCNDSLNTGFL; not fully specified (C-terminus); printed as N-R-T-A-L-N-C-N-D-S-L-N-T-G-F-L) [SEQ ID NO: 36] too.
result: yes (1)

query: Now give it for E-A-T-Y-T-K-C-G-S-G-P-W-L-T-P-R (EATYTKCGSGPWLTPR; HCV peptide) [SEQ ID NO: 60] too.
result: no (0)

New cases:
query: Could you please find out whether P-C-T-V-N-F-T-I-F-K-V-R-M-Y-V-G (PCTVNFTIFKVRMYVG; HCV peptide) [SEQ ID NO: 64] has HCVpp % inh that meets 20% or exceeds it?
result: no (0)
